# Experimental Details: Volume of distribution at steady state in mouse at 1 mg/kg, iv
# Assay type: ADME, organism-based
# Design: dose 1 mg/kg, route intravenous
# Settings: in vivo, read-out: Vdss
Readout: Vd
Put down the number, then write its unit next to it.

In [3]: df
Out[3]:
                                   compound  experimental_value
0  CCNC(=O)Nc1ccc(-c2nc3c(c(N4CCOC[C@@H]4C)n2)CCN(c2nc(C)ns2)C3)cc1           0.72 L/kg
1  CCNC(=O)Nc1ccc(-c2nc3c(c(N4CCOCC4)n2)CCN(c2ncccn2)C3)cc1            1.1 L/kg
2  CCNC(=O)Nc1ccc(-c2nc3c(c(N4CCOC[C@@H]4C)n2)CCN(c2ncccn2)C3)cc1            1.2 L/kg
3  CCNC(=O)Nc1ccc(-c2nc3c(c(N4CCOC[C@@H]4C)n2)CN(c2ncccn2)CC3)cc1            2.4 L/kg
4  CCNC(=O)Nc1ccc(-c2nc3c(c(N4CCOC[C@@H]4C)n2)CCN(c2cccnn2)C3)cc1            1.7 L/kg

Consider now this further molecule.
Looking up CCNC(=O)Nc1ccc(-c2nc3c(c(N4CCOC[C@@H]4C)n2)CN(c2cnccn2)CC3)cc1 , I found its Vd recorded as 1.4 L/kg

###

# Experimental Details: Plasma protein binding in rat
# Assay type: ADME, cell-free
# Settings: read-out: PPB (converted)
fraction unbound overview
Lab note: write the figure by itself, no unit.

// below: answered compounds
In [3]: df
Out[3]:
                                   compound  experimental_value
0  CCNC(=O)Nc1ccc(-c2nc3c(c(N4CCOC[C@@H]4C)n2)CN(c2cnccn2)CC3)cc1                0.04
1  CCNC(=O)Nc1ccc(-c2nc3c(c(N4CCOCC4)n2)CCN(c2ncccn2)C3)cc1                0.01
2  CCNC(=O)Nc1ccc(-c2nc3c(c(N4CCOC[C@@H]4C)n2)CCN(c2nc(C)ns2)C3)cc1                0.04
3  CCNC(=O)Nc1ccc(-c2nc3c(c(N4CCOC[C@@H]4C)n2)CN(c2ncccn2)CC3)cc1                0.03

Proceed to the following item.
For CCNC(=O)Nc1ccc(-c2nc3c(c(N4CCOC[C@@H]4C)n2)CCN(c2ncccn2)C3)cc1 the compound record lists fraction unbound as 0.03

###

# Experimental Details: Half life in mouse at 1 mg/kg, iv
# Type: ADME, organism-based
# Set-up: dose 1 mg/kg, route intravenous
# Settings: in vivo
Binary classification by half-life, with 40 min as an inclusive lower bound for Criterion met; all other cases are Criterion not met.

// below: answered molecules
>>> df
                                   compound        label_value
0  CCNC(=O)Nc1ccc(-c2nc3c(c(N4CCOC[C@@H]4C)n2)CCN(c2nc(C)ns2)C3)cc1  Criterion not met
1  CCNC(=O)Nc1ccc(-c2nc3c(c(N4CCOCC4)n2)CCN(c2ncccn2)C3)cc1      Criterion met
2  CCNC(=O)Nc1ccc(-c2nc3c(c(N4CCOC[C@@H]4C)n2)CN(c2cnccn2)CC3)cc1  Criterion not met
3  CCNC(=O)Nc1ccc(-c2nc3c(c(N4CCOC[C@@H]4C)n2)CCN(c2cccnn2)C3)cc1      Criterion met
4  CCNC(=O)Nc1ccc(-c2nc3c(c(N4CCOC[C@@H]4C)n2)CCN(c2ncccn2)C3)cc1      Criterion met

Next molecule, please.
Prompt: Does half-life meet or surpass 40 min for CCNC(=O)Nc1ccc(-c2nc3c(c(N4CCOC[C@@H]4C)n2)CN(c2ncccn2)CC3)cc1 ?
Response: Criterion met

###

Items are presented alongside their recorded fraction unbound.
# Experimental Details: Plasma protein binding in human
# Type: ADME, cell-free
# Settings: read-out: PPB (converted)
API doc: respond with a numeric literal and nothing else, no unit.

Some entries whose results are on file:
                                   compound  experimental_value
0  CCNC(=O)Nc1ccc(-c2nc3c(c(N4CCOC[C@@H]4C)n2)CN(c2ncccn2)CC3)cc1                0.02
1  CCNC(=O)Nc1ccc(-c2nc3c(c(N4CCOCC4)n2)CCN(c2ncccn2)C3)cc1                0.02
2  CCNC(=O)Nc1ccc(-c2nc3c(c(N4CCOC[C@@H]4C)n2)CCN(c2ncccn2)C3)cc1                0.02

fraction unbound measured on CCNC(=O)Nc1ccc(-c2nc3c(c(N4CCOC[C@@H]4C)n2)CCN(c2nc(C)ns2)C3)cc1 = 0.03

Input CCNC(=O)Nc1ccc(-c2nc3c(c(N4CCOC[C@@H]4C)n2)CN(c2cnccn2)CC3)cc1 . Output fraction unbound: 0.03

###

// reported CLhep predicted for each item listed
# Experimental Details: Clearance in human liver microsomes
# Type: ADME, Microsome
Answer in mL/min/kg, number only, no unit symbol.

Sample answers from the record:
>>> df
                                   compound  experimental_value
0  CCNC(=O)Nc1ccc(-c2nc3c(c(N4CCOC[C@@H]4C)n2)CCN(c2cccnn2)C3)cc1                 7.3
1  CCNC(=O)Nc1ccc(-c2nc3c(c(N4CCOC[C@@H]4C)n2)CN(c2ncccn2)CC3)cc1                  16
2  CCNC(=O)Nc1ccc(-c2nc3c(c(N4CCOC[C@@H]4C)n2)CN(c2cnccn2)CC3)cc1                  15
3  CCNC(=O)Nc1ccc(-c2nc3c(c(N4CCOC[C@@H]4C)n2)CCN(c2nc(C)ns2)C3)cc1                  19

response.value for CCNC(=O)Nc1ccc(-c2nc3c(c(N4CCOC[C@@H]4C)n2)CCN(c2ncccn2)C3)cc1 (field: CLhep predicted) = 15

Data point: CCNC(=O)Nc1ccc(-c2nc3c(c(N4CCOCC4)n2)CCN(c2ncccn2)C3)cc1 ; CLhep predicted = 13

###

# Experimental Details: Oral bioavailability in mouse at 5 mg/kg
# Type: ADME, organism-based
# Settings: in vivo
Readout: bioavailability
Remember to follow the number with its unit.

Query CCNC(=O)Nc1ccc(-c2nc3c(c(N4CCOC[C@@H]4C)n2)CCN(c2ncccn2)C3)cc1 yields bioavailability of 42%

Reported bioavailability of CCNC(=O)Nc1ccc(-c2nc3c(c(N4CCOC[C@@H]4C)n2)CN(c2cnccn2)CC3)cc1 : 29%

Reported bioavailability for CCNC(=O)Nc1ccc(-c2nc3c(c(N4CCOC[C@@H]4C)n2)CN(c2ncccn2)CC3)cc1 was 62%

Kindly note the recorded bioavailability for CCNC(=O)Nc1ccc(-c2nc3c(c(N4CCOC[C@@H]4C)n2)CCN(c2nc(C)ns2)C3)cc1 , which is 32%

bioavailability in this record for CCNC(=O)Nc1ccc(-c2nc3c(c(N4CCOCC4)n2)CCN(c2ncccn2)C3)cc1 : 70%

Entry CCNC(=O)Nc1ccc(-c2nc3c(c(N4CCOC[C@@H]4C)n2)CCN(c2cccnn2)C3)cc1 , bioavailability reported as 21.8%

###

# Experimental Details: AUC in mouse at 5 mg/kg, po
# Type: ADME, organism-based
# Design: dose 5 mg/kg, route oral
# Settings: plasma
Overview of recorded AUC for various compounds
Answer format: numeric, µM·h implied, no suffix.

// worked examples, AUC included
>>> df
                                   compound  experimental_value
0  CCNC(=O)Nc1ccc(-c2nc3c(c(N4CCOC[C@@H]4C)n2)CCN(c2nc(C)ns2)C3)cc1                 2.5
1  CCNC(=O)Nc1ccc(-c2nc3c(c(N4CCOC[C@@H]4C)n2)CCN(c2cccnn2)C3)cc1                0.87
2  CCNC(=O)Nc1ccc(-c2nc3c(c(N4CCOC[C@@H]4C)n2)CN(c2ncccn2)CC3)cc1                 2.9
3  CCNC(=O)Nc1ccc(-c2nc3c(c(N4CCOCC4)n2)CCN(c2ncccn2)C3)cc1                 5.7
4  CCNC(=O)Nc1ccc(-c2nc3c(c(N4CCOC[C@@H]4C)n2)CCN(c2ncccn2)C3)cc1                   2

Next up:
Item: CCNC(=O)Nc1ccc(-c2nc3c(c(N4CCOC[C@@H]4C)n2)CN(c2cnccn2)CC3)cc1 | AUC: 0.41

###

# Experimental Details: Clearance in mouse liver microsomes
# Type: ADME, Microsome
Answer not met if CLhep predicted is under 60 mL/min/kg, and met if it is 60 mL/min/kg or more.

Solved entries:
                                   compound  label_value
0  CCNC(=O)Nc1ccc(-c2nc3c(c(N4CCOCC4)n2)CCN(c2ncccn2)C3)cc1      not met
1  CCNC(=O)Nc1ccc(-c2nc3c(c(N4CCOC[C@@H]4C)n2)CN(c2cnccn2)CC3)cc1          met
2  CCNC(=O)Nc1ccc(-c2nc3c(c(N4CCOC[C@@H]4C)n2)CCN(c2nc(C)ns2)C3)cc1      not met
3  CCNC(=O)Nc1ccc(-c2nc3c(c(N4CCOC[C@@H]4C)n2)CCN(c2cccnn2)C3)cc1      not met

Let's switch to this compound now.
Prompt: Given the entry CCNC(=O)Nc1ccc(-c2nc3c(c(N4CCOC[C@@H]4C)n2)CN(c2ncccn2)CC3)cc1 , answer whether its CLhep predicted meets or surpasses 60 mL/min/kg.
Response: met
